Tested on: 266295-075-R-J1-PDC spheroid viability;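 also: spheroids exposed to compounds for seven days before readout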
Test: Anticancer human tumor 266295-075-R-J1-PDC patient-derived head and neck squamous carcinoma cell line growth inhibition [POLQ]
Settings: second compound 0.1 µM; first compound 0.316 µM; stronger effect = lower value; spheroids with HUVEC and MSC
Test Readout: viability, T/C

# get_value(readout= viability, T/C, system= 266295-075-R-J1-PDC spheroid viability) for CCc1cc2c(N3CCc4c(cc(Cn5ccnc5)cc4-c4cn(C)nc4C(F)(F)F)C3=O)ccnc2c(OC)n1 + COC1C(OC(N)=O)C(O)C(Oc2ccc3c(O)c(NC(=O)c4ccc(O)c(CC=C(C)C)c4)c(=O)oc3c2C)OC1(C)C;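 also: spheroids exposed to compounds for seven days before readout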
127%

Now this one: CCCS(=O)(=O)Nc1ccc(F)c(C(=O)c2c[nH]c3ncc(-c4ccc(Cl)cc4)cc23)c1F + Cc1cccc(N(C)C(=O)C2C(O)CCN2c2nc(C)cc(C(F)(F)F)c2C#N)c1
92.8%

Now this one: Nc1ccn(C2OC(CO)C(O)C2(F)F)c(=O)n1 (stereo not given) + Cc1cccc(N(C)C(=O)C2C(O)CCN2c2nc(C)cc(C(F)(F)F)c2C#N)c1
79.6%

Now this one: CCc1c2c(nc3ccc(O)cc13)-c1cc3c(c(=O)n1C2)COC(=O)[C@]3(O)CC + Cc1cccc(N(C)C(=O)C2C(O)CCN2c2nc(C)cc(C(F)(F)F)c2C#N)c1
110%

Now this one: C=CCn1c(=O)c2cnc(Nc3ccc(N4CCN(C)CC4)cc3)nc2n1-c1cccc(C(C)(C)O)n1 + Cc1cccc(N(C)C(=O)C2C(O)CCN2c2nc(C)cc(C(F)(F)F)c2C#N)c1
79.4%
